system: HCT 116 (colorectal carcinoma cell line); test: cells; type: cell-based, human; conditions: Homo sapiens, HCT-116, 48 h, MTT, incubation 48 h, addition of CuCl2 at 20 µM
pIC50: −log10 of the molar value.
measurement type: pIC50

molecule	comparison symbol	endpoint result
C=C(C)[C@@H]1CC[C@]2(COC(=O)CCC(=O)OCc3cn([C@@H]4O[C@H](COC(C)=O)[C@@H](OC(C)=O)[C@H](OC(C)=O)[C@H]4OC(C)=O)nn3)CC[C@]3(C)C(CCC4[C@@]5(C)CC[C@H](O)C(C)(C)C5CC[C@]43C)C12 (stereo partly shown) [5c]	<	3.70
C=C(C)[C@@H]1CC[C@]2(COC(=O)CCC(=O)OCc3cn(CCO[C@@H]4O[C@H](COC(C)=O)[C@@H](OC(C)=O)[C@H](OC(C)=O)[C@H]4OC(C)=O)nn3)CC[C@]3(C)C(CCC4[C@@]5(C)CC[C@H](O)C(C)(C)C5CC[C@]43C)C12 (stereo partly shown) [7c]	<	3.70
C=C(C)[C@@H]1CC[C@]2(COC(=O)CCC(=O)OCc3cn([C@@H]4O[C@H](COC(C)=O)[C@@H](OC(C)=O)[C@H](OC(C)=O)[C@H]4OC(C)=O)nn3)CC[C@]3(C)C(CCC4[C@@]5(C)CC[C@H](OC(C)=O)C(C)(C)C5CC[C@]43C)C12 (stereo partly shown) [5a]	<	3.70
C=C(C)[C@@H]1CC[C@]2(COC(=O)CCC(=O)OCc3cn(C[C@H]4O[C@@H](OC(C)=O)[C@H](OC(C)=O)[C@@H](OC(C)=O)[C@H]4OC(C)=O)nn3)CC[C@]3(C)C(CCC4[C@@]5(C)CC[C@H](OC(C)=O)C(C)(C)C5CC[C@]43C)C12 (stereo partly shown) [8a]	<	3.70
C=C(C)[C@@H]1CC[C@]2(COC(=O)CCC(=O)OCc3cn(CCO)nn3)CC[C@]3(C)C(CCC4[C@@]5(C)CC[C@H](OC(C)=O)C(C)(C)C5CC[C@]43C)C12 (stereo partly shown) [9a]	<	3.70
C=C(C)[C@@H]1CC[C@]2(COC(=O)CCC(=O)OCc3cn(CCCO[C@@H]4O[C@H](COC(C)=O)[C@@H](OC(C)=O)[C@H](OC(C)=O)[C@H]4OC(C)=O)nn3)CC[C@]3(C)C(CCC4[C@@]5(C)CC[C@H](O)C(C)(C)C5CC[C@]43C)C12 (stereo partly shown) [7d]	=	4.22
C=C(C)[C@@H]1CC[C@]2(CO)CC[C@]3(C)[C@H](CC[C@@H]4[C@@]5(C)CC[C@H](O)C(C)(C)[C@@H]5CC[C@]43C)[C@@H]12 [BN, 3-Lup-20(29)-ene-3β,28-diol]	=	4.68
C=C(C)[C@@H]1CC[C@]2(COC(=O)CCC(=O)OCc3cn([C@@H]4O[C@H](COC(C)=O)[C@H](OC(C)=O)[C@H](OC(C)=O)[C@H]4OC(C)=O)nn3)CC[C@]3(C)C(CCC4[C@@]5(C)CC[C@H](OC(C)=O)C(C)(C)C5CC[C@]43C)C12 (stereo partly shown) [6a]	<	3.70
C=C(C)[C@@H]1CC[C@]2(COC(=O)CCC(=O)OCc3cn(CCCO[C@@H]4O[C@H](COC(C)=O)[C@@H](OC(C)=O)[C@H](OC(C)=O)[C@H]4OC(C)=O)nn3)CC[C@]3(C)C(CCC4[C@@]5(C)CC[C@H](OC(C)=O)C(C)(C)C5CC[C@]43C)C12 (stereo partly shown) [7b]	=	3.95
C=C(C)[C@@H]1CC[C@]2(COC(=O)CCC(=O)OCc3cn(CCO[C@@H]4O[C@H](COC(C)=O)[C@@H](OC(C)=O)[C@H](OC(C)=O)[C@H]4OC(C)=O)nn3)CC[C@]3(C)C(CCC4[C@@]5(C)CC[C@H](OC(C)=O)C(C)(C)C5CC[C@]43C)C12 (stereo partly shown) [7a]	=	3.82
